System: MCF7
Experiment: Cytotoxicity against human MCF7 cells assessed as reduction in cell growth by MTT assay
Format: functional, cell-based
Kindly supply the reported IC50 values for the records listed here.
Numbers only, in µM.

Return reported IC50; argument: `CCOP(=O)(OCC)C(Cc1cn(CCN2C/C(=C\c3ccc([N+](=O)[O-])cc3)C(=O)/C(=C/c3ccc([N+](=O)[O-])cc3)C2)nn1)P(=O)(OCC)OCC` 5

Proceed to the following item.
Return reported IC50; argument: `CCOP(=O)(OCC)C(Cc1cn(CCN2C/C(=C\c3ccc(C#N)cc3)C(=O)/C(=C/c3ccc(C#N)cc3)C2)nn1)P(=O)(OCC)OCC` 5
